# chromatographic logP listing for each entry below
test-description: logP by HPLC on reversed-phase columns (EEC Directive 79/831 Annex V.A8)
Format: physicochemical
study-conditions: pH 2.7, logP (pH 2.7)

[
  {
    "compound": "O=Cc1cccc(Nc2ncc(C(F)(F)F)c(NC3CCC3)n2)c1",
    "chromatographic logP": 3.26
  },
  {
    "compound": "CC(=O)c1cccc(Nc2ncc(C(F)(F)F)c(NCC3CC3)n2)c1",
    "chromatographic logP": 2.77
  },
  {
    "compound": "COCC(C)Nc1nc(Nc2cccc(C=O)c2)ncc1Cl (centres unmarked)",
    "chromatographic logP": 1.8
  },
  {
    "compound": "O=Cc1cccc(Nc2ncc(Cl)c(NCC(F)F)n2)c1",
    "chromatographic logP": 2.01
  },
  {
    "compound": "O=Cc1cccc(Nc2ncc(Cl)c(NC3CC3)n2)c1",
    "chromatographic logP": 1.82
  },
  {
    "compound": "Clc1cnc(Nc2cccc(C3OCCCO3)c2)nc1NC1CC1",
    "chromatographic logP": 1.69
  },
  {
    "compound": "O=Cc1cccc(Nc2ncc(C(F)(F)F)c(NC3CC3)n2)c1",
    "chromatographic logP": 2.73
  },
  {
    "compound": "CC(=O)c1ccc(Nc2ncc(Cl)c(NC3CC3)n2)cc1",
    "chromatographic logP": 1.93
  },
  {
    "compound": "Cc1cnc(Nc2cccc(C=O)c2)nc1NC1CC1",
    "chromatographic logP": 1.13
  },
  {
    "compound": "CC1(c2ccc(Nc3ncc(Cl)c(NC4CC4)n3)cc2)OCCO1",
    "chromatographic logP": 1.84
  },
  {
    "compound": "CC(=O)c1cccc(Nc2ncc(C(F)(F)F)c(NC3CCC3)n2)c1",
    "chromatographic logP": 3.24
  }
]
